Biological target: T1, β-catenin (UniProt P35222 134-665, limits assumed, biotinylated in the SPR and plate assays)
T1 sequence (looked up): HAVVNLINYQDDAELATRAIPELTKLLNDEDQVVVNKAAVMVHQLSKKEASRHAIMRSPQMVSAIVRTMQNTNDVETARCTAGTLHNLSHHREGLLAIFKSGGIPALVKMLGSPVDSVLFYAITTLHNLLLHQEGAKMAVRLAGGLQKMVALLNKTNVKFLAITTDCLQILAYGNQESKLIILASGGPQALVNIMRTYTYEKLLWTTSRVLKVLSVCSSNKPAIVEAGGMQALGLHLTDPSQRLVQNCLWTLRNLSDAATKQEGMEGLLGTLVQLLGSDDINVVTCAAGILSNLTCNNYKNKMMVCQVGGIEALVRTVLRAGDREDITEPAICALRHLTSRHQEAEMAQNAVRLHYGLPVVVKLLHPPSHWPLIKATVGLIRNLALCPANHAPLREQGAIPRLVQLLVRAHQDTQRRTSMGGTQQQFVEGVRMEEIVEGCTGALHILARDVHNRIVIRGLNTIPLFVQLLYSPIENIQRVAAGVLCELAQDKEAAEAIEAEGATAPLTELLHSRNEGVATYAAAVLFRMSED
Experiment: cell-based or functional assay
[ ]: non-standard residue; d: D form. The star is where a group is joined. NMeW = CN[C@@H](Cc1c[nH]c2ccccc12)C(=O)O; Stearoyl = CCCCCCCCCCCCCCCCCC(=O)*; αMeV = CC(C)[C@](C)(N)C(=O)O; αMeS = C[C@](N)(CO)C(=O)O
observation_type: Wnt Reporter EC50

Take a look at these entries with their results.
binder: XMWFLICAWD (HELM PEPTIDE1{[O=C(CCCCCN[*:1])[*:2]].M.W.F.L.I.C.A.W.D}$PEPTIDE1,PEPTIDE1,1:R1-10:R3$$$V2.0; SMILES CC[C@H](C)[C@@H]1NC(=O)[C@H](CC(C)C)NC(=O)[C@H](Cc2ccccc2)NC(=O)[C@H](Cc2c[nH]c3ccccc23)NC(=O)[C@H](CCSC)NC(=O)CCCCCNC(=O)C[C@@H](C(=O)O)NC(=O)[C@H](Cc2c[nH]c3ccccc23)NC(=O)[C@H](C)NC(=O)[C@H](CS)NC1=O) [SEQ ID NO: 192]
Wnt Reporter EC50: ≤ 7.5 µM
--
binder: H-MWESILDEHMQRVWRG-OH [SEQ ID NO: 23]
Wnt Reporter EC50: > 30 µM

Please find the next binder below.
Q) // Wnt Reporter EC50 lookup, key: Stearoyl-W[NMeW]E[αMeS]ILDEH[αMeV]QRVW-OH (393 used) [Peptide 4 (SEQ ID NO: 393/500)]
A) ≤ 7.5 µM
